- Test system: HCT-15 colon
- protocol.description: NCI tumour cell line growth inhibition, 48 h

| compound | TGI |
| --- | --- |
| NNC(=O)C(=O)NN=C(C(Cl)(Cl)CO)C(Cl)(Cl)CO | 75.5 µM |
| N#CC1CC(c2ccccc2)Nc2cc(Cl)ccc2N1 (stereo unspecified) | > 100 µM |
| COc1ccc2nc3c(c(N)c2c1)C1CCC3C1(C)C (stereo unspecified) | > 100 µM |
| COc1ccc2ccccc2c1C1=NC(C)(C)CO1 | > 100 µM |
| O=C(CCCC(=O)Nc1ccc(Cl)cc1Cl)CC(=O)c1ccc2ccccc2c1 | > 100 µM |
| Nc1nc(=S)c2c(ncn2CCO)[nH]1 | > 100 µM |
| C1CCC(N=C2N(C3CCCCC3)C(=NC3CCCCC3)N2C2CCCCC2)CC1 | > 100 µM |
| O=C1c2cc3c(cc2-c2c1c1ccc(Cl)cc1c(=O)n2C[C@H](O)CO)OCO3 | 1.28 µM |
| CN(C)c1ccc(-c2cc(-c3ccc(Nc4nc(Nc5ccc(Cl)cc5)nc(Nc5ccc(Cl)cc5)n4)cc3)nc(N)c2C#N)cc1 | > 100 µM |
| C=CCON(C(=O)OC(C)(C)C)C(C)(C)C | > 100 µM |
| COc1ccc2nc3cc(Cl)ccc3c(NC(C)CCCN(CCCl)CCCl)c2c1 (stereo unspecified) | 6.56 µM |

---

- Tested on: MDA-MB-231 breast
- protocol.description: NCI tumour cell line growth inhibition, 48 h
measure.name: TGI (µM)

| compound | target.or.test.system | operator | result |
| --- | --- | --- | --- |
| COCCN(Cc1ccc(F)cc1)c1ccc(CO)c(Cl)c1 | MDA-MB-231 breast | > | 85.3 |
| CCN(/C=C1/C(=O)C(c2ccccc2)N(c2ccccc2)C1=O)CC (stereo unspecified) | MDA-MB-231 breast | > | 10 |
| OCCCCC#Cc1ccccc1C#Cc1cccc(C(F)(F)F)c1 | MDA-MB-231 breast | = | 33.4 |
| O=C1CC(c2cccc(Cl)c2)Nc2ccc(N3CCCC3)cc21 (stereo unspecified) | MDA-MB-231 breast | > | 100 |
| C[C@H]1CC[C@@]2(OC1)O[C@H]1C[C@H]3[C@@H]4CC[C@@H]5C[C@@H](OC6OC(CO)C(O)C(O)C6OC6OC(CO)C(O)C(O)C6O)CC[C@]5(C)[C@H]4CC[C@]3(C)[C@H]1[C@@H]2C (stereo partly specified) | MDA-MB-231 breast | = | 3.81 |
| COC(=O)[C@H](Cc1ccccc1)NC(=O)c1ccc(CNC(=O)/C=C/c2csc(-c3ccccc3)n2)cc1 | MDA-MB-231 breast | = | 57.7 |
| CC(=O)Oc1c(C(=O)[O-])cc(C(C)C)cc1C(C)C.CC(=O)Oc1c(C(=O)[O-])cc(C(C)C)cc1C(C)C.CC(=O)Oc1c(C(=O)[O-])cc(C(C)C)cc1C(C)C.CC(=O)Oc1c(C(=O)[O-])cc(C(C)C)cc1C(C)C.[Cu+2].[Cu+2] | MDA-MB-231 breast | > | 100 |
| COC(=O)/C=C/c1ccc(OP(=O)(O)O)c(OC)c1 | MDA-MB-231 breast | > | 100 |
| CN1C(=O)CC(=O)N1/C(=C/c1ccccc1)c1ccccc1 | MDA-MB-231 breast | = | 79.4 |
| O=S(=O)(/N=C(\NO)Nc1ccc(Cl)cc1)c1cc(C(F)(F)F)cc(C(F)(F)F)c1 | MDA-MB-231 breast | = | 37.2 |
| CCC(c1ccccc1)c1noc(CCN(CC)CC)n1 (stereo unspecified) | MDA-MB-231 breast | > | 91.2 |
| CN(NC1=NCCO1)c1ccc2ccccc2c1 | MDA-MB-231 breast | > | 100 |
| O=C(COc1ccc(/C=C2\Oc3ccccc3C2=O)cc1)Nc1nc2ccccc2s1 | MDA-MB-231 breast | = | 60.3 |
| COC(CN(C)C(=S)Nc1cccc2ccccc12)OC | MDA-MB-231 breast | > | 10 |
| COc1ccc2nc3c(c(N)c2c1)C1CCC3C1(C)C (stereo unspecified) | MDA-MB-231 breast | = | 68.3 |
| CC(SC(=S)N1CCOCC1)C(=O)Nc1nnc(-c2ccc(Cl)cc2)o1 (stereo unspecified) | MDA-MB-231 breast | > | 100 |
| CCOc1cnc(C(O)(c2ccccc2)c2ccccc2)o1 | MDA-MB-231 breast | > | 100 |
| O=C1c2ccccc2C(=O)c2c(NC3CCCCC3)ccc(Nc3ccc(S(=O)(=O)O)cc3)c21 | MDA-MB-231 breast | = | 69.9 |
| S=C1SCN(Cc2ccccc2)CN1Cc1ccco1 | MDA-MB-231 breast | = | 12.3 |
| O=C1c2cc(O)c(O)cc2O[C@H](c2ccc(O)c(O)c2)[C@H]1O | MDA-MB-231 breast | > | 100 |
| CCN(CC)CCNc1ccc([N+](=O)[O-])c2nc3ccc(OC)cc3c(NCCN(CC)CC)c12 | MDA-MB-231 breast | = | 2.45 |
| C=CCON(C(=O)OC(C)(C)C)C(C)(C)C | MDA-MB-231 breast | > | 100 |
| O=C(c1cccs1)c1c(C(F)(F)F)n([O-])c2cc(Cl)c(Cl)cc2[n+]1=O | MDA-MB-231 breast | = | 2.07 |
| CCOC(=O)c1c2c(n(-c3ccc(C)cc3)c1C)-c1ccccc1C(=O)C2(C(=O)OCC)C(=O)OCC | MDA-MB-231 breast | > | 100 |
| CC(C)Cc1ccc(C(C)/C=C2\CCC(CN(C)C)C2=O)cc1 (stereo unspecified) | MDA-MB-231 breast | = | 4.52 |
| COc1ccc(-c2[nH]c3ccc(OC)cc3c2C=C(C#N)C#N)cc1 | MDA-MB-231 breast | > | 100 |
| O=C(NCCC1CNc2ccccc21)OCc1ccccc1 (stereo unspecified) | MDA-MB-231 breast | > | 100 |
| CCO/C=C1\SC(=S)N(c2ccc(OCC)cc2)C1=O | MDA-MB-231 breast | > | 100 |
| Cc1nc2sc3cccc(Cl)c3n2c(=O)c1N=Nc1ccc(Cl)cc1 | MDA-MB-231 breast | > | 100 |
| CSC(=O)/C=C1\SS/C(=C\C(=O)SC)S1 | MDA-MB-231 breast | = | 4.85 |
| O=C1c2cc3c(cc2-c2c1c1ccc(Cl)cc1c(=O)n2C[C@H](O)CO)OCO3 | MDA-MB-231 breast | = | 1.97 |
